target-or-system: mu opioid receptors (Rattus norvegicus)
Construct: rat forebrain (TRH, mu and delta opioid membrane assays); from tissue; host or cells: rat forebrain membranes
Sequence (P33535 whole entry): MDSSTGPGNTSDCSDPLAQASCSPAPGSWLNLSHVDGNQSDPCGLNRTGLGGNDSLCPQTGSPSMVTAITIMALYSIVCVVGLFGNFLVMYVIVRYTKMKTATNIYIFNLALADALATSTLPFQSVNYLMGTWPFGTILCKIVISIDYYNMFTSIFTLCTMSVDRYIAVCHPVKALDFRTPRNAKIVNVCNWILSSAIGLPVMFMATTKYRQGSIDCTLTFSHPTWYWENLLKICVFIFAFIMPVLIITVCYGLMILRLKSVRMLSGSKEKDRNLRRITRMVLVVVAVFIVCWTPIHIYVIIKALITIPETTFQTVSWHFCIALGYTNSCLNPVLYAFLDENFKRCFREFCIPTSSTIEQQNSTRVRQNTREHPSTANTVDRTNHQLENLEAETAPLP
assay-name: Mu opioid membrane assay, [3H]DAGO, rat forebrain membranes
Format: binding
conditions-used: Cheng method; unit inferred; read-out: affinity, [3H]DAGO, Rat Forebrain membranes (mu opioid receptors)
Where a SMILES comes first, the peptide text is derived from it. Bridges are numbered along the chain shown (N, C = ends). [ ]: non-standard residue; d: D form. 2Nal = N[C@@H](Cc1ccc2ccccc2c1)C(=O)O; d2Nal = N[C@H](Cc1ccc2ccccc2c1)C(=O)O
Assignment: determine reported pKi for the given molecules.
The meaning of pKi here: minus log10 of the concentration in molar units.

Input: Tell me reported pKi for CC(C)[C@@H]1NC(=O)[C@H](CCCCN)NC(=O)[C@@H](Cc2c[nH]c3ccccc23)NC(=O)[C@H](Cc2ccc(O)cc2)NC(=O)[C@@H](NC(=O)[C@H](N)Cc2ccccc2)CSSC[C@@H](C(=O)N[C@@H](Cc2ccc3ccccc3c2)C(N)=O)NC1=O [Analog #4] (H-[dF]CY[dW]KVC[2Nal]-NH2; disulfide 2-7) , tested with mu opioid receptors (Rattus norvegicus).
Output: 6.19

Input: Next molecule: CC(C)[C@@H]1NC(=O)[C@H](CCCCN)NC(=O)[C@@H](Cc2c[nH]c3ccccc23)NC(=O)[C@H](Cc2ccc(O)cc2)NC(=O)[C@H](NC(=O)[C@H](N)Cc2ccc3ccccc3c2)CSSC[C@@H](C(=O)N[C@@H](Cc2ccc3ccccc3c2)C(N)=O)NC1=O [Analog #10] (H-[d2Nal][dC]Y[dW]KVC[2Nal]-NH2; disulfide 2-7)
Output: 5.99

Input: Next molecule: CC(C)[C@@H]1NC(=O)[C@H](CCCCN)NC(=O)[C@@H](Cc2c[nH]c3ccccc23)NC(=O)[C@H](Cc2ccc(O)cc2)NC(=O)[C@@H](NC(=O)[C@@H](N)Cc2ccc3ccccc3c2)CSSC[C@@H](C(=O)N[C@H](Cc2ccc3ccccc3c2)C(N)=O)NC1=O [Analog #9] (H-[2Nal]CY[dW]KVC[d2Nal]-NH2; disulfide 2-7)
Output: 5.94

These entries and their values trace back to patent US5462926A.
